From: ChEMBL document CHEMBL1772952

Species: Rattus norvegicus
Assay: Selectivity ratio of Ki for DAT in rat striatum to Ki for NET in rat cerebral cortex
Type: tissue-based
Note to self: values exactly at 0.9 are criterion met. So Ratio Ki at or above 0.9 is criterion met, below is criterion not met.

[
  {
    "ITEM SMILES": "O[C@@H](CN[C@H]1CC[C@@H](C(c2ccccc2)c2ccccc2)OC1)c1ccc(F)cc1",
    "CLASS NAME": "criterion not met"
  },
  {
    "ITEM SMILES": "c1ccc(C(c2ccccc2)[C@@H]2CC[C@H](NCc3ccco3)CO2)cc1",
    "CLASS NAME": "criterion met"
  },
  {
    "ITEM SMILES": "COc1cccc([C@H](O)CN[C@H]2CC[C@@H](C(c3ccccc3)c3ccccc3)OC2)c1",
    "CLASS NAME": "criterion not met"
  },
  {
    "ITEM SMILES": "c1ccc(C(c2ccccc2)[C@@H]2CC[C@H](NCc3cccnc3)CO2)cc1",
    "CLASS NAME": "criterion not met"
  },
  {
    "ITEM SMILES": "c1ccc(C(c2ccccc2)[C@@H]2CC[C@H](NCc3ccc[nH]3)CO2)cc1",
    "CLASS NAME": "criterion met"
  },
  {
    "ITEM SMILES": "c1ccc(C(c2ccccc2)[C@@H]2CC[C@H](NCc3cccc4ccccc34)CO2)cc1",
    "CLASS NAME": "criterion met"
  },
  {
    "ITEM SMILES": "O[C@H](CN[C@H]1CC[C@@H](C(c2ccccc2)c2ccccc2)OC1)c1ccc(F)cc1",
    "CLASS NAME": "criterion not met"
  }
]
